Assay: Plasma protein binding in mouse
Assay type: ADME, cell-free
Conditions: read-out: PPB (converted)
Endpoint Name: fraction unbound

A: CNC(=O)c1ccc2c(c1)nc(-c1ccccc1SC)n2[C@@H]1CCC[C@H](NC(=O)c2ccc(Br)s2)C1 (relative stereo)
B: CNC(=O)c1ccc2c(c1)nc(-c1ccccn1)n2[C@@H]1CCC[C@H](NC(=O)c2ccc(Br)s2)C1 (relative stereo)
In: Which of these two has the smaller recorded fraction unbound: A or B ? Give the chosen item's label as your response.
Out: A

---

Target: Branched-chain-amino-acid aminotransferase, cytosolic (Homo sapiens)
Sequence (P54687 whole entry): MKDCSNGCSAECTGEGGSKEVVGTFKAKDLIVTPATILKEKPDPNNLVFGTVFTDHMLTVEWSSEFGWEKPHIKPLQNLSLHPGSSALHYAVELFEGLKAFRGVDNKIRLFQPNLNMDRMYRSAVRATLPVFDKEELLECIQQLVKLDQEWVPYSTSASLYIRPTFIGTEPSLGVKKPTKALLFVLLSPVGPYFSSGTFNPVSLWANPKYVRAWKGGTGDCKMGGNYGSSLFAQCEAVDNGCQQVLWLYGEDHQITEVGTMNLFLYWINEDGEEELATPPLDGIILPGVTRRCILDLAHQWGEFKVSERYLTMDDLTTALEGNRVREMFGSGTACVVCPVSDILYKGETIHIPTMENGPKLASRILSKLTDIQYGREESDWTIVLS
Endpoint Name: IC50 (µM)
Quick note: give the figure in µM, leave out the unit.

In: Any idea what its IC50 is? The molecule is CNC(=O)c1ccc2c(c1)nc(-c1ccccn1)n2[C@@H]1CCC[C@H](NC(=O)c2ccc(Br)s2)C1 (relative stereo)
Out: 3.98

Origin of measurements: ChEMBL document CHEMBL3808314
